biological target: T1, human Prostate Specific Membrane Antigen (PSMA) (human, UniProt Q04609 1-750); experiment: flow cytometry on LNCaP cells
T1 construct: whole, on cells; also called Glutamate Carboxypeptidase II; FOLH1
T1 sequence (Q04609 whole entry): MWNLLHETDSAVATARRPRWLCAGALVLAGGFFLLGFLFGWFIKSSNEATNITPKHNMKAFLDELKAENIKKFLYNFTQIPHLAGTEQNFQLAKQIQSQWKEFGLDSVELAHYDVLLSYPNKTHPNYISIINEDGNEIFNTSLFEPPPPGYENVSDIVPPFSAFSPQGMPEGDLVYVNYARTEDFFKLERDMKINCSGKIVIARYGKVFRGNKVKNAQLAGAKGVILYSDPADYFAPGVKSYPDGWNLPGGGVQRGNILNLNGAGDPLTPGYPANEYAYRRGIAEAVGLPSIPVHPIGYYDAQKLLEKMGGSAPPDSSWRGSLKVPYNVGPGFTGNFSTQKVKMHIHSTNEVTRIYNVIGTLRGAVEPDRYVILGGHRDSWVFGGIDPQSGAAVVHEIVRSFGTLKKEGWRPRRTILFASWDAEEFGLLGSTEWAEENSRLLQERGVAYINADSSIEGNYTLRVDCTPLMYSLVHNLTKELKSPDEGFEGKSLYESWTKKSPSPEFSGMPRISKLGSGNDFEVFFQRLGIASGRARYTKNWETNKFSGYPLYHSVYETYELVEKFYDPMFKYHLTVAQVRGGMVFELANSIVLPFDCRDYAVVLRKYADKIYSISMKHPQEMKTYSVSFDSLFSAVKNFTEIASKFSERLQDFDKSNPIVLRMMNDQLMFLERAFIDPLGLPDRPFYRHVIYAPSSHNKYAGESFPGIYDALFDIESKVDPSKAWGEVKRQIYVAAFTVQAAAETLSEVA
Measured fold over background MFI, listed per entry for reference.
Please state the figure in fold over background; there is no need to write the unit.

Guide cases for fold over background MFI, answers given:
binder	display-unit	fold over background MFI
anti-PSMA heavy-chain antibody (HCAb) clone ID 346181 (antibody, V domains shown, Heavy chain-only antibody (UniAb)) VH: QLQLQESGPGLVKPSETLSLTCTVSGGSISSSNYFWGWIRQSPGKGLEWIGSIDYSGYTYYNPSLKSRVTISVDTSKNQFSLKLSSVTAADTAVYNCARHKAATADFDYRGQGTLVTVSS	fold over background	264
anti-PSMA heavy-chain antibody (HCAb) clone ID 345438 (antibody, V domains shown, Heavy chain-only antibody (UniAb)) VH: QVQLVESGGGVVQPGRSLRLSCAASGFSFSSYGMHWVRQAPGKGPEWVAVIWYDGSNKYYADSVKGRFTISRDNSKNTLYLQMNSLRAEDTAVYYCAREPRIGYYYESSGYYSLDYRGQGTLVTVSS	fold over background	13
anti-PSMA heavy-chain antibody (HCAb) clone ID 325867 (antibody, V domains shown, Heavy chain-only antibody (UniAb)) VH: QVQLVESGGGVVQPGRSLRLSCAASGFSFRSYGMHWVRQAPGKGLEWVAVIWYDGSNKYYADSVKGRFTISRDYSKNTLYLQMNSLRAEDTAVYYCAREPRIGYYYESSGYDSLDYRGQGTLVTVSS	fold over background	210
anti-PSMA heavy-chain antibody (HCAb) clone ID 325836 (antibody, V domains shown, Heavy chain-only antibody (UniAb)) VH: QVQLVESGGGVVQPGRSLRLSCAASGFSFRSYGMHWVRQAPGKGLEWVAVIWYDGSNKYYADSVKGRFTISRDYSKNTLYLQMNSLRAEDTAVYYCAREPRIGYYYDSSGYDSLDYRGQGTLVTVSS	fold over background	163
anti-PSMA heavy-chain antibody (HCAb) clone ID 345461 (antibody, V domains shown, Heavy chain-only antibody (UniAb)) VH: QVQLVESGGGVVQPGRSLRLSCAASGFSFTSYGMHWVRQAPGKGLEGVAVIWYDGSNRYYADSVKGRFTISRDNSKNTLYLQMNSLRAEDTAVYYCAREPRIGYYYESSGYYSLDYRGQGTLVTVSS	fold over background	102
anti-PSMA heavy-chain antibody (HCAb) clone ID 346165 (antibody, V domains shown, Heavy chain-only antibody (UniAb)) VH: QLQLQESGPGLVKPSETLSLTCTVSGGSISSSSYYWGWIRQPPGKGLEWIGSVDYSGYTYYNPSLQSRVTISVDTSKNQFSLKLSSVTAADTAVYNCARHKAATADFDYRGQGTLVTVSS	fold over background	243

Query: Consider the binder anti-PSMA heavy-chain antibody (HCAb) clone ID 326087 (antibody, V domains shown, Heavy chain-only antibody (UniAb)) VH: QVQLVESGGGVVQPGRSLRLSCAASGFIFRSYGMHWVRQAPGKGPEWVAVIWYDGSNKYYADSVKGRFTISRDNSKNTLYLQMNSLRAEDTAVYYCAREPRIGYYYDSSGYDSLDYRGQGTLVTVSS and give its measured fold over background MFI.
Response: 129

Query: Consider the binder anti-PSMA heavy-chain antibody (HCAb) clone ID 326084 (antibody, V domains shown, Heavy chain-only antibody (UniAb)) VH: QVQLVESGGGVVQPGRSLRLSCAASGFSFSSYGMHWVRQAPGKGLEGVAVIWYDGSNRYYADSVKGRFTISRDNSKNTLYLQMNSLRAEDTAVYYCAREPRIGYYYDSSGYYSLDYRGQGTLVTVSS and give its measured fold over background MFI.
Response: 125

Recorded values, source patent US20230203161A1.
